Provenance of the data: patent US7601713B2

# Tested on: JAK kinases (JAK1 and JAK3)
# protocol.notes: JAK inhibition: IL-4-stimulated CD23 upregulation in human Ramos B-cells, FACS
# Assay type: cell-based
# test.context: IL-4 stimulated Ramos B-cells, unit printed MM, read-out: IC50, inhibition of JAK kinases in cellular assay
pIC50: −log10 of the molar value.
measure: pIC50

Input line: Identify measured pIC50 associated with CNC(=O)COc1cccc(Nc2nc(N[C@H]3[C@@H](C(N)=O)[C@@H]4C=C[C@H]3C4)c3nc[nH]c3n2)c1
Output line: > 5.00

----------
pIC50: −log10 of the molar value.
PRK1 kinase (Homo sapiens) data, read-out pIC50
Sequence (Q16512 whole entry): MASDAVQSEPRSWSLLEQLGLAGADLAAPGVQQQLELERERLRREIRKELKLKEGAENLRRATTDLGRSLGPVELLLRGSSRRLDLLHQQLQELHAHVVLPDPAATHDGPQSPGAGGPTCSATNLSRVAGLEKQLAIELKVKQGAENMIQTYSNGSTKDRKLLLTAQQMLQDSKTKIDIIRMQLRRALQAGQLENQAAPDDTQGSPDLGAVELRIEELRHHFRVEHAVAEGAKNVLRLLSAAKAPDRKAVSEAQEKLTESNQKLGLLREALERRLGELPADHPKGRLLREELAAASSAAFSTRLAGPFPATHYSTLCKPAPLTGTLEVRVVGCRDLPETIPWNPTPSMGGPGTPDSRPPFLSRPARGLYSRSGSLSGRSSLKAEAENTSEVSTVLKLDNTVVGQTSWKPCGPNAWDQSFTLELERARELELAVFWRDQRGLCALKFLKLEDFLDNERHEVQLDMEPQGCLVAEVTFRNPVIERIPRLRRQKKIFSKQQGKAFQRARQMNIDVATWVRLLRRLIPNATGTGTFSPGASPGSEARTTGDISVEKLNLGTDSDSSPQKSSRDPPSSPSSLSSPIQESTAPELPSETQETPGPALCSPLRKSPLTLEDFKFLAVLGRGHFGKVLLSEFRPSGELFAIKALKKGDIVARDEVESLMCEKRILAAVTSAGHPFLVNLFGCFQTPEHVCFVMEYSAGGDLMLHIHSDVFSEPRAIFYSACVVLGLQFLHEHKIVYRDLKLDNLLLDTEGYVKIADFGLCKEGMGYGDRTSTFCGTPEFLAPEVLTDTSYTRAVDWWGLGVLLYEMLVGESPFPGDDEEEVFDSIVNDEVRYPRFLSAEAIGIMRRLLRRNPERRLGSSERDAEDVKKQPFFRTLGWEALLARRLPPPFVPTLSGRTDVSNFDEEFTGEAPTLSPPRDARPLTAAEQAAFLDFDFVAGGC

N#Cc1ccc(-c2ccc(Nc3nc(NC4C5C=CC(C5)C4C(N)=O)c4cc[nH]c4n3)cc2)cc1 (racemic) = > 5.30

Turning now to a further record.
Input line: System PRK1 kinase (Homo sapiens). Read-out pIC50. Item NC(=O)C1C2C=CC(C2)C1Nc1nc(Nc2cccc(CN3CCOCC3)c2)nc2[nH]ccc12 (racemic) . Report value.
Output line: > 5.30

----------
# system.under.test: Syk kinase (Homo sapiens)
Recorded IC50, one value per entry.

Example results:
CSc1cccc(Nc2nc(NC3C4C=CC(C4)C3C(=O)N(C)C)c3nc[nH]c3n2)c1 (racemic) = < 10 µM
CONC(=O)Cc1ccc(Nc2nc(NC3C4C=CC(C4)C3C(N)=O)c3cc[nH]c3n2)cc1 (racemic) = < 10 µM
CN(C)C(=O)C1C2C=CC(C2)C1Nc1nc(Nc2cccc(S(N)(=O)=O)c2)nc2[nH]cnc12 (racemic) = < 10 µM
COc1cccc(Nc2nc(NC3C4CCC(C4)C3C(=O)NN)c3cc[nH]c3n2)c1 (racemic) = < 5 µM
Cc1cccc(Nc2nc(NC3C4C=CC(C4)C3C(=O)N(C)C)c3nc[nH]c3n2)c1 (racemic) = < 10 µM

Input line: Answer with reported IC50 of NC(=O)C1C2CC(C1Nc1nc(Nc3ccc(N4CCOCC4)cc3)nc3[nH]ccc13)C1ON=C(c3ccccc3)C21 (racemic)
Output line: > 10 µM

Input line: Kindly indicate its recorded IC50. Item: CC(C)Oc1cccc(Nc2nc(NC3C4C=CC(C4)C3C(=O)N(C)C)c3nc[nH]c3n2)c1 (racemic)
Output line: > 10 µM

----------
pIC50: −log10 of the molar value.
kinase Lyn b (Homo sapiens, UniProt P07948) pIC50 data
Sequence (P07948 1-491 isoform P07948-2): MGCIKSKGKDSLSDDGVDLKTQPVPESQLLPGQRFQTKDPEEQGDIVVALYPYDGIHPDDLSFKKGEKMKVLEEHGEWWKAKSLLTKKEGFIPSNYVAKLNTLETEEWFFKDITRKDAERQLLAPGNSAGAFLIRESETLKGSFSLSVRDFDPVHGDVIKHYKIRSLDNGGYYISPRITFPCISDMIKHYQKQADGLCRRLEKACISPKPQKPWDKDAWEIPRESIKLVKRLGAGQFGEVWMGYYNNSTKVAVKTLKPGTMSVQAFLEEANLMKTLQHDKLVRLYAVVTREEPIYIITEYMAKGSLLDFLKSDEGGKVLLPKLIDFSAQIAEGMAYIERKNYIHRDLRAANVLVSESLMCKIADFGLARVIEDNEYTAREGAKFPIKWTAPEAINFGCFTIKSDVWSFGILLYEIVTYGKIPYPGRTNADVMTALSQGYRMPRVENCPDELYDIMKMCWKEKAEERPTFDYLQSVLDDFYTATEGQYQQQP

COc1cccc(Nc2nc(NC3CC4CCC3C4)c3nc[nH]c3n2)c1 (racemic) [Compound 154] = > 6.00
CCOc1cccc(Nc2nc(NC3C4C=CC(C4)C3C(N)=O)c3nc[nH]c3n2)c1 (racemic) [Compound 131] = > 6.00
NC(=O)[C@H]1[C@@H](Nc2nc(Nc3cccc(OCCN4CCOCC4)c3)nc3[nH]cnc23)[C@@H]2C=C[C@H]1C2 [Compound 113] = > 6.00
NC(=O)[C@@H]1[C@H](Nc2nc(Nc3ccc(Cc4ccncc4)cc3)nc3[nH]cnc23)[C@H]2C=C[C@@H]1C2 [Compound 148] = > 6.00
Cc1ccc(Nc2nc(NC3C4C=CC(C4)C3C(N)=O)c3nc[nH]c3n2)cc1F (racemic) [Compound 134] = > 6.00

// next entry
Input line: Hello, please tell me recorded pIC50 for this one: COc1ccccc1Nc1nc(NC2C3C=CC(C3)C2C(N)=O)c2nc[nH]c2n1 (racemic) [Compound 136]
Output line: < 5.00

----------
# system.under.test: Axl kinase (Homo sapiens)
# Construct: endogenous in cells
# protocol.notes: Phospho-Akt in-cell Western assay (Axl antibody cross-linking, Hela cells)
# test.context: phospho-Akt readout, read-out: IC50, inhibition of Axl kinase
Items are presented alongside their recorded IC50.

Input line: Note down IC50 recorded for CONC(=O)Cc1cccc(Nc2nc(NC3C4C=CC(C4)C3C(N)=O)c3cc[nH]c3n2)c1 (racemic) [Compound 229]
Output line: < 10 µM

Input line: Tell us which IC50 value is on record for Cc1csc2c(NC3C4C=CC(C4)C3C(N)=O)nc(Nc3ccc(OCCN4CCCC4)c(F)c3)nc12 (racemic) [Compound 241]
Output line: < 5 µM

Input line: Please indicate IC50 recorded for Cc1cc(Nc2nc(NC3C4C=CC(C4)C3C(N)=O)c3ccccc3n2)ccc1OCCN1CCCC1 (racemic) [Compound 215]
Output line: < 5 µM

Input line: Complete the entry with IC50 for NC(=O)C1C2C=CC(C2)C1Nc1nc2c(c(Nc3ccc(OCCN4CCCC4)cc3)n1)CN(Cc1ccccc1)CC2 (stereo not shown) [Compound 186]
Output line: < 5 µM

Input line: For NC(=O)C1C2C=CC(C2)C1Nc1nc(Nc2ccc3c(c2)OCCCO3)nc2ccsc12 (stereo not shown) [Compound 182] , write its IC50.
Output line: < 5 µM

Input line: Entry NC(=O)C1C2C=CC(C2)C1Nc1nc(Nc2cccc(OCc3ccncc3)c2)nc2[nH]cnc12 (racemic) [Compound 224] needs its IC50 filled in; supply it.
Output line: < 10 µM

Input line: Report measured IC50; entry is CCN(CC)C(=O)c1cccc(Nc2nc(NC3C4C=CC(C4)C3C(N)=O)c3cc[nH]c3n2)c1 (racemic) [Compound 222]
Output line: < 5 µM

----------
A collection of compounds and their measured pIC50
# system.under.test: Axl kinase (Homo sapiens, UniProt P30530)
# Construct: endogenous in cells
# Sequence (P30530 26-894): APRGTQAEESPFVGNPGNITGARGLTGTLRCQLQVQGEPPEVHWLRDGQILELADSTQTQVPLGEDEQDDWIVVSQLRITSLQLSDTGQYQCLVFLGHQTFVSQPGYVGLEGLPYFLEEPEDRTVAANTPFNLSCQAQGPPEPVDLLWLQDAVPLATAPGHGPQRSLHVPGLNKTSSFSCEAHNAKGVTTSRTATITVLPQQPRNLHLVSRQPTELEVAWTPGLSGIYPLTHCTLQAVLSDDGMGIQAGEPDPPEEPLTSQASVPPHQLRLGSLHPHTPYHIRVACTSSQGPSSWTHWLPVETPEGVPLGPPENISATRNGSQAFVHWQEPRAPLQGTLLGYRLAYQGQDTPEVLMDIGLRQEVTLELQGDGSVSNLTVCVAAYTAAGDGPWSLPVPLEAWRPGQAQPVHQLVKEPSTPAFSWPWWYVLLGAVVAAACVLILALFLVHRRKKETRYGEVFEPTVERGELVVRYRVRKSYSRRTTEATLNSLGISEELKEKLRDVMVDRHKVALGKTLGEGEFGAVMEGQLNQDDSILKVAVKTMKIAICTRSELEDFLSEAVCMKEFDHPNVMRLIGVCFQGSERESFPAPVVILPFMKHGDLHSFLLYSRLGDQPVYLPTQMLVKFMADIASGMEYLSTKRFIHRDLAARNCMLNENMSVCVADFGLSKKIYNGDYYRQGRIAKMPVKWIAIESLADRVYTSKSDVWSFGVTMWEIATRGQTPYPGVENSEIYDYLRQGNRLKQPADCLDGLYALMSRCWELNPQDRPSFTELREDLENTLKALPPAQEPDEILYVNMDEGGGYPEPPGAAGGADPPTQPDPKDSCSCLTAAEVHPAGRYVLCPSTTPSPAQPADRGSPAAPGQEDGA
# protocol.notes: Phospho-Akt in-cell Western assay (Axl antibody cross-linking, Hela cells)
# test.context: phospho-Akt readout, read-out: IC50, inhibition of Axl kinase
pIC50: −log10 of the molar value.

// known answers, use as guide
COc1cccc(Nc2nc(NC3C4CCC(C4)C3C(=O)NN)c3cc[nH]c3n2)c1 (racemic) [Compound 231] = > 5.00
NC(=O)[C@H]1C2C=CC(C2)[C@H]1Nc1nc(Nc2ccc(OCCN3CCCC3)cc2)nc2c1cnn2Cc1ccccc1 (stereo partly shown) [Compound 189] = < 5.00
CCOC(=O)C1C2C=CC(C2)C1Nc1nc(Nc2cccc(OC)c2)nc2[nH]ccc12 (racemic) [Compound 232] = > 5.00

Pending compound:
Input line: Determine from records and report pIC50 for NC(=O)[C@H]1C2C=CC(C2)[C@H]1Nc1nc(Nc2ccc(C(=O)N3CCN(C4CCCCC4)CC3)cc2)nc2cc(C(F)(F)F)sc12 (stereo partly shown) [Compound 211]
Output line: > 5.00

----------
Hi! I'm sharing some IC50 results obtained with Syk kinase (Homo sapiens, UniProt P43405).

COc1cc(Nc2nc(NC3C4C=CC(C4)C3C(N)=O)c3scc(C)c3n2)cc(OC)c1OC (racemic) [Compound 238] = > 10 µM
COc1ccccc1Nc1nc(NC2C3C=CC(C3)C2C(N)=O)c2nc[nH]c2n1 (racemic) [Compound 136] = < 10 µM
NC(=O)C1C2C=CC(C2)C1Nc1nc(Nc2cccc(CN3CCOCC3)c2)nc2[nH]ccc12 (racemic) [Compound 221] = < 5 µM

Moving on to another molecule below.
Input line: Under Syk kinase (Homo sapiens, UniProt P43405): report IC50 of CN(C)C(=O)C1C2C=CC(C2)C1Nc1nc(Nc2ccc(N3CCCCC3)cc2)nc2[nH]cnc12 (racemic) [Compound 145] .
Output line: < 10 µM
